Overview of reported self-cleavage kobs at 640 uM GlcN6P across a group of variants:
B1: glmS ribozyme (parent)
chain: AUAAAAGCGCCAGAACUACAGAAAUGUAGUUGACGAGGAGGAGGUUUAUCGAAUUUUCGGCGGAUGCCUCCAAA

Variants of: B1
Experiment: self-cleavage kobs at 640 uM GlcN6P; higher = faster cleavage; RNA array
Conditions: with glucosamine-6-phosphate
This sample holds only a part of the variants without activity.

Residue Change: A12U G13U G32U A64G
self-cleavage kobs at 640 uM GlcN6P: < 1e-05 s⁻¹

Residue Change: A14U U49C U57G C70G
self-cleavage kobs at 640 uM GlcN6P: 6.79e-05 s⁻¹

Residue Change: G9A G62C
self-cleavage kobs at 640 uM GlcN6P: < 1e-05 s⁻¹

Residue Change: G7U C8A U30G G44C
self-cleavage kobs at 640 uM GlcN6P: < 1e-05 s⁻¹

Residue Change: A39C U56G
self-cleavage kobs at 640 uM GlcN6P: 0.000539 s⁻¹

Residue Change: C8G G13A U56C
self-cleavage kobs at 640 uM GlcN6P: < 1e-05 s⁻¹

Residue Change: G40U C50U G63A C67A
self-cleavage kobs at 640 uM GlcN6P: < 1e-05 s⁻¹

Residue Change: U57G C71A
self-cleavage kobs at 640 uM GlcN6P: 4.65e-05 s⁻¹

Residue Change: G29A G43C A52C C61U
self-cleavage kobs at 640 uM GlcN6P: < 1e-05 s⁻¹

Residue Change: C10G U47G G60C
self-cleavage kobs at 640 uM GlcN6P: 0.000256 s⁻¹

Residue Change: A14C G44C U55C
self-cleavage kobs at 640 uM GlcN6P: < 1e-05 s⁻¹

Reference for the values: the supplement of paper PMC7125110
